# MEASURED TARGET: human RXFP1 (Homo sapiens)
# Construct: expressed in transfected cells
# Sequence (Q9HBX9 1-757): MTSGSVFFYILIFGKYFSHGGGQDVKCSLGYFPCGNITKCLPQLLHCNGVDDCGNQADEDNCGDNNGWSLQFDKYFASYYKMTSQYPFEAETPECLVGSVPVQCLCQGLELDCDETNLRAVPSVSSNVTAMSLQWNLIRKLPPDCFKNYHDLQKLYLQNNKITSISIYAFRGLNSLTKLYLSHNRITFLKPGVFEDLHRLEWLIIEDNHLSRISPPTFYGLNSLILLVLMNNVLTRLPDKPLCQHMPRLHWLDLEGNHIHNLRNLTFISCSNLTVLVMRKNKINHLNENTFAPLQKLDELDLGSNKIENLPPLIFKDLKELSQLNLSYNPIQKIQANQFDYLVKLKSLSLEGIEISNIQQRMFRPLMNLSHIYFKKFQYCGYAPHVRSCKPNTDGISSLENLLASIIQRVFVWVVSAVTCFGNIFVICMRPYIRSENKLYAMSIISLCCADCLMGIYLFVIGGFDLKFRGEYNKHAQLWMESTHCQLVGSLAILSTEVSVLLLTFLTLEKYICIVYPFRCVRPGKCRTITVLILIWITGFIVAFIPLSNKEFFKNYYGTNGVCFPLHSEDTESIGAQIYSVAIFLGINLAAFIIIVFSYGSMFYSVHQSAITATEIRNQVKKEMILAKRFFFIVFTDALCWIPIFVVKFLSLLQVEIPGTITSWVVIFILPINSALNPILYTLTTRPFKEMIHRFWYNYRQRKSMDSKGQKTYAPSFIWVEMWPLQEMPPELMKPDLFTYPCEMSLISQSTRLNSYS
# ASSAY INFO: RXFP1 cAMP assay (hRXFP1 HEK293 cAMP assay, HTRF)
# Assay type: cell-based
# APPLIED CONDITIONS: HEK293 cells stably expressing human RXFP1, 30 min at room temperature, read-out: cAMP hRXFP1 HEK293 Assay EC50
# Procedure: RXFP1 Cyclic Adenosine Monophosphate (cAMP) Assays. […] Cells were dissociated and suspended in assay buffer. The assay buffer was HBSS buffer (with calcium and magnesium) containing 20 mM HEPES, 0.05% BSA, and 0.5 mM IBMX. […] The level of intracellular cAMP was determined using the HTRF HiRange cAMP assay reagent kit (Cisbio) according to manufacturer's instructions. […]
PROPERTY NAME: EC50 (nM)

Recorded results for 3 compounds are shown here.
COc1ccc(C2=NOC(CCO)C2)cc1C(=O)N[C@@H]1C2CCC(/C2=C/C2CC2)[C@@H]1C(=O)Nc1ccc(F)c(C(F)(F)F)c1 (some centres unmarked) [compound 399] | 42
COc1ncc(-c2ccc(OC)c(C(=O)N[C@H]3[C@@H](C(=O)Nc4ccc(F)c(C(F)(F)F)c4)[C@H]4CC[C@@H]3C4=C(C)C)c2)cn1 | 190
COc1ccc(-n2nccc2C(=O)O)cc1C(=O)N[C@@H]1C2CCC(/C2=C/C(F)(F)F)[C@@H]1C(=O)Nc1ccc(F)c(C(F)(F)F)c1 (some centres unmarked) | 1400

a: COc1ccc(-c2cc(C(=O)O)ccc2F)cc1C(=O)N[C@@H]1C2CCC(/C2=C/C2CC2)[C@@H]1C(=O)N[C@@H](C)c1ccccc1C(F)(F)F (some centres unmarked)
b: COc1ccc(C2=NOC(CC(C)(C)O)C2)cc1C(=O)N[C@H]1[C@@H](C(=O)Nc2ccc(F)c(C(F)(F)F)c2)[C@H]2CC[C@@H]1/C2=C\C1CC1 (single isomer, unassigned) [compound 528]
Inquiry: I need your help: which of the pair a , b has higher EC50? Pick one and reply with its label.
Reply text: a
(a: 139 nM, b: 22.4 nM)

meta.source: patent US20250221966A1
